growth by entry:
System: UACC-62 melanoma
assay-info: NCI-60 one-dose screen, 48 h (100 = growth as untreated, 0 = no growth, -100 = all killed)
cond: 10 µM unless noted
Protocol: Growth inhibition of the UACC-62 human tumor cell line is measured as a screen for anti-cancer activity. Cells are grown in 96 well plates and exposed to the test compound for 48 hours. Compounds are tested at a single concentration, which is 10^-5 M for most compounds. The reported endpoint is percent growth (GI% or GIPRCNT), where numbers from 0 - 100% represent growth inhibition, and numbers from -100% - 0 represent cell death. For example, a value of 40 represents 60% growth inhibition. […]
Compounds without any hit were thinned out: in the full panel of roughly 83,000, 20% have a hit.

molecule	growth [%]
Nc1c(C(=O)Nc2ccccc2)sc2nc3c(cc12)CCC3	69.8
COc1ncc(-c2ccc3ncnc(Nc4cccc(Cl)c4)c3c2)cc1N(S(C)(=O)=O)S(C)(=O)=O	58.1
CCCCCCCCCN1C(=O)/C(=c2\sc3n(c2=O)C2C(NN=3)N(CC)C(=O)N2CC)c2ccccc21 (stereo not given)	23.7
Cn1c(C(N)=O)cc2c1-c1nc(NC3CCCCC3)ncc1CCC2	103
C=C1C(=O)O[C@H]2[C@H]1CC/C(Cn1cc(-c3ccccc3C(F)(F)F)nn1)=C\CC[C@@]1(C)O[C@@H]21	-61.8
CN1CCN(c2ccc3cc(-c4nc5ccccc5[nH]4)c(=O)oc3c2)CC1	81.6
COc1ccc(S(=O)(=O)NCCNc2nccc(-c3c(-c4ccccc4)nc4sccn34)n2)cc1	24.8
COc1ccc([N+](=O)[O-])c(/C=C/C(=O)c2ccccn2)c1	94.7
COc1cccc(C2CC(=O)Nc3c2c(C)nn3-c2nc3ccccc3[nH]2)c1OC (stereo not given)	51.3
CCn1cc(C(=O)O)c(=O)c2cc(F)c(N3CCN(S(=O)(=O)c4ccc(OC)c(OC)c4)CC3)cc21	95.2
C=C1C(=O)O[C@H]2[C@H]1CC/C(COC(=O)NCc1cc(OC)cc(OC)c1)=C\CC[C@@]1(C)O[C@@H]21	-44.9
CCCCn1c(=O)c(C2CNC(=O)c3ccccc3N2)cc2ccccc21 (stereo not given)	88.4
COc1cc(C(=O)/C=C/c2cc(C(=O)c3cc(OC)c(OC)c(OC)c3)ccc2OC)ccc1N	-79.8
COc1ccc(C2CC(=O)Nc3c2c(C)nn3-c2nc3ccccc3[nH]2)cc1OC (stereo not given)	68.8
Cc1ccc(S(=O)(=O)OCC(=O)Nc2ccc(C(=O)O)c(O)c2)cc1	99.9
O=C1Nc2ccc(Br)cc2C1=N/C=c1\[nH]c(=O)/c(=C/c2ccc(Cl)cc2)s1	91.2
Cc1ccc(Cn2c(-c3cccs3)nc3ccccc32)cc1	85.4
CCN1C(=O)N(CC)C2C1NN=c1s/c(=C\c3ccccn3)c(=O)n12 (stereo not given)	39.8
CCN(CC)CCC(=O)c1cccc2ccccc12	97
O=C1c2ccccc2C(=O)c2c1oc1oc3c(c(=O)c21)c(=O)n(-c1ccccc1)c1ccccc31	13.2
